assayed.target: ΔF508-CFTR (Homo sapiens, UniProt P13569, DEL508-508)
Construct: host or cells: CFBE41o-, doxycycline-inducible
Sequence (P13569 with tags, fused parts or gaps DEL508-508): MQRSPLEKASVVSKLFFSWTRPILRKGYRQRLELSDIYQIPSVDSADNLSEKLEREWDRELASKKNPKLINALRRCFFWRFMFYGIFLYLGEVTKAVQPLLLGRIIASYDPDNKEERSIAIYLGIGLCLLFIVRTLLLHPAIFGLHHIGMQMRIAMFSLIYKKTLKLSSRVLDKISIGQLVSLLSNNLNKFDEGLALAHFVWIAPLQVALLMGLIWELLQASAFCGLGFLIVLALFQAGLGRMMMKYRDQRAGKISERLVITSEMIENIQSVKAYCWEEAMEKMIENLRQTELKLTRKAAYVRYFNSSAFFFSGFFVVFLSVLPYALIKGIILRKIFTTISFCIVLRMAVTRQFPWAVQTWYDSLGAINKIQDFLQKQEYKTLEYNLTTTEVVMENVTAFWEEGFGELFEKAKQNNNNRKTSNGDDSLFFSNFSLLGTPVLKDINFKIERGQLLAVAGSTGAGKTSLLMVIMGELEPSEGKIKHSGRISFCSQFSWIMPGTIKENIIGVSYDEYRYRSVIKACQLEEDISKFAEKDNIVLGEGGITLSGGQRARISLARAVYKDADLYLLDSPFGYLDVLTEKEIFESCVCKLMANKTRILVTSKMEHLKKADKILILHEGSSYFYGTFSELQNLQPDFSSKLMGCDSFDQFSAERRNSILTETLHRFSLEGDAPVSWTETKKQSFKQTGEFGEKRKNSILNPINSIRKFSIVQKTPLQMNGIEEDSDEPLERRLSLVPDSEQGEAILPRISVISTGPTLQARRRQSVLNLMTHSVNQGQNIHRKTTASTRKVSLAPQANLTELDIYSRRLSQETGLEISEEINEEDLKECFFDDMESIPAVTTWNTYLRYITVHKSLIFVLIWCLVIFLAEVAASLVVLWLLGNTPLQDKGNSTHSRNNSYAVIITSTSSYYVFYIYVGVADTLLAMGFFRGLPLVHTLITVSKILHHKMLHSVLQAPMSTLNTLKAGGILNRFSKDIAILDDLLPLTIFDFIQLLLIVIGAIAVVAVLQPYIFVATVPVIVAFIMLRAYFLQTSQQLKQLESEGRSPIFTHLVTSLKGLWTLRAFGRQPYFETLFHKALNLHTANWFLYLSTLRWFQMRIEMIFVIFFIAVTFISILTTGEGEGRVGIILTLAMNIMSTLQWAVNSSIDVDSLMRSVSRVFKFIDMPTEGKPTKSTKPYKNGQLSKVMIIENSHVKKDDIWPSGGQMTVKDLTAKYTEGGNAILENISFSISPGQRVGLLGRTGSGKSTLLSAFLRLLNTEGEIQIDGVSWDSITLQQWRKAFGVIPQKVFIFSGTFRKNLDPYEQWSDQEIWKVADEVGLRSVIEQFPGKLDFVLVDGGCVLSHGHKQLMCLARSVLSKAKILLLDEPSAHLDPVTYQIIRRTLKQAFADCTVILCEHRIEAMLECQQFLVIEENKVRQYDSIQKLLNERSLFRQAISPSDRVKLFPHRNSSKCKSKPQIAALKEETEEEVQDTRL
assay.comment: CFTR cell surface levels using HRP-tagged ΔF508-CFTR expressing CFBE cells, in the presence of a co-corrector
Assay type: cell-based
condition.summary: HRP-tagged ΔF508-CFTR CFBE cells, in the presence of 3 μM co-corrector; read-out: EC50
Recorded log10 EC50, one value per entry.
Please be aware that the numbers have been log10-transformed from EC50 in nM.

Answered cases to consult:
{"columns": ["compound", "log10 EC50"],
 "data": [
  ["CCCCOC1CCN(c2cc(C(=O)NS(C)(=O)=O)nc3c2c(C(C)C)nn3-c2ccc(F)cc2)CC1", 2.32],
  ["COCC1CCN(c2cc(C(=O)NS(=O)(=O)CCN(C)C)nc3c2c(C2CCC2)nn3-c2ccccc2)CC1", 2.05],
  ["COCCS(=O)(=O)NC(=O)c1cc(-c2ccc(N3CCOCC3)cc2)c2c(C)nn(C3CC3)c2n1", 3.40]
]}

So what does the record say about log10 EC50 for CS(=O)(=O)NC(=O)c1cc(N2CCC(N3CCCC(F)C3)CC2)c2c(C3CCC3)nn(-c3ccc(F)cc3)c2n1 (centres unmarked) ? 1.75

Returns the measured log10 EC50 for the input compound. Input: "CS(=O)(=O)NC(=O)c1cc(N2CCC(N3CCOCC3)CC2)c2c(C3CCC3)nn(C3CCCCC3)c2n1" 2.34

----------
Listed next: entries and their corresponding pEC50.
assayed.target: ΔF508-CFTR (Homo sapiens, UniProt P13569, DEL508-508)
Construct: host or cells: CFBE41o-, doxycycline-inducible
assay.comment: CFTR cell surface levels using HRP-tagged ΔF508-CFTR expressing CFBE cells, intrinsic corrector capacity
Format: cell-based
condition.summary: HRP-tagged ΔF508-CFTR expressing CFBE41o- cells; compound alone (intrinsic corrector capacity); 20 hours at 33° C.; read-out: EC50
Scale explanation: pEC50 corresponds to minus log10 of a concentration expressed in moles per litre.

For orientation, consider the following solved cases.
{"columns": ["molecule", "pEC50"],
 "data": [
  ["COCC1CCN(c2cc(C(=O)NS(C)(=O)=O)nc3c2c(C(C)C)nn3C2CCCCC2)CC1 [Compound 218]", 6.41],
  ["COC1CCN(C2CCN(c3cc(C(=O)NS(C)(=O)=O)nc4c3c(OC(C)C)nn4-c3ccc(F)cc3)CC2)CC1 [Compound 644]", 6.60],
  ["COCC1CCN(c2cc(C(=O)NS(=O)(=O)c3cn(C)c(C)n3)nc3c2c(C2CCC2)nn3-c2ccccc2)CC1 [Compound 250]", 6.29],
  ["CS(=O)(=O)NC(=O)c1cc(-c2ccc(N3CCC(C#N)CC3)cc2)c2c(C3CCC3)nn(C3CCCCC3)c2n1 [Compound 103]", 6.27],
  ["CCOC(=O)N1CCN(c2cc(C(=O)NS(=O)(=O)N3CCOCC3)nc3c2c(C2CCC2)nn3-c2ccc(F)cc2)CC1 [Compound 678]", 6.66]
]}

Report pEC50 for Cc1nn(-c2ccccc2)c2nc(C(=O)NS(C)(=O)=O)cc(-c3ccc(N(C)C)cc3)c12 [Compound 33] please. 5.59

pEC50 for COc1ccc(-c2cc(C(=O)NS(C)(=O)=O)nc3c2c(C)nn3-c2cccc(C)c2)cc1 [Compound 27] ? 5.91
